Listed below: APTT values for each entry.
Species on record: Rattus norvegicus
assay: Open TG-GATES - Regimen: Single
Assay type: toxicity, organism-based, Sprague-Dawley
Design: regimen Single, gender Male, age 6 weeks
assay.setup: in vivo, po, 10 mg/kg, 6 h, tissue Blood, route gavage, dose level Low
Your answer is read as s, so omit the unit and give the number.

Sample answers from the record:
-- ask What does the record list as APTT for `CN(C)CCCN1c2ccccc2CCc2ccccc21` ?
-- reply 16

-- ask Now consider `CN(C)CCCN1c2ccccc2CCc2ccc(Cl)cc21` .
-- reply 17

-- ask Field entry: `CC1=C(/C=C/C(C)=C/C=C/C(C)=C/CO)C(C)(C)CCC1`
-- reply 21

// moving on: another record for APTT
-- ask Requested read-out: APTT. Entry: `CN(C)CCN(Cc1cccs1)c1ccccn1`
-- reply 20.6
